Hey, just so you know, these numbers are from patent US20220313640A1.

protocol description: Single Ascending Dose (SAD) study plasma PK in healthy volunteers
Assay type: in vivo, human
recorded conditions: human, plasma, po, 1 g, 1 g single oral dose, fasted; arithmetic mean
parameter measured: Cmax (ng/mL)
One number for each entry, in ng/mL.

// field: Cmax; key: `[2H][C@@](N)(CO)C(=O)O` ; value = 22300

---

protocol description: Pharmacokinetics of deuterated and non-deuterated D-serine in male Sprague Dawley rats, PO 10 mg/kg
Type: in vivo
recorded conditions: rat, 0.5% Methylcellulose, plasma
parameter measured: Tmax (min)
Give bare numbers, in min.

Short answer for NC(CO)C(=O)O (stereo in doubt) [Non-deuterated D-Serine, D-serine] : Tmax was 25

---

protocol description: Multiple Ascending Dose (MAD) study plasma PK, 7 consecutive days
recorded conditions: human, plasma, po, 4 g
parameter measured: Tmax (h)
Numbers only, in h.

The reported Tmax of the compound `[2H][C@@](N)(CO)C(=O)O` was 2

---

protocol description: Pharmacokinetic profile of Compound 100 versus non-deuterated D-serine in male Sprague-Dawley rats, 150 mg/kg PO
Format: in vivo
recorded conditions: male, Sprague-Dawley, rat, fasted, plasma, mean
parameter measured: AUC(0-inf) (µg·h/mL)
Give bare numbers, in µg·h/mL.

The molecule NC(CO)C(=O)O (stereo in doubt) showed AUC(0-inf) equal to 349

---

protocol description: Pharmacokinetics dose response of non-deuterated D-serine in male Sprague-Dawley rats, 30-300 mg/kg PO
Format: in vivo
recorded conditions: rat, plasma, po, 30 mg/kg, 30 mg/kg PO, fasted, mean
parameter measured: Tmax (min)
One number for each entry, in min.

// NC(CO)C(=O)O (stereo in doubt) [Non-deuterated D-Serine, D-serine] : Tmax value = 30

---

protocol description: Pharmacokinetics dose response of non-deuterated D-serine in male Sprague-Dawley rats, 30-300 mg/kg PO
Assay type: in vivo
recorded conditions: rat, plasma, po, 100 mg/kg, 100 mg/kg PO, fasted, mean
parameter measured: Tmax

For this compound ( NC(CO)C(=O)O (stereo in doubt) ), measured Tmax is 30 min

---

protocol description: Pharmacokinetics of non-deuterated D-serine in male Sprague-Dawley rats, 300 mg/kg PO
Assay type: in vivo
recorded conditions: rat, cortex, 8 hr, mean, endogenous level not subtracted, read-out: Cortex concentration
parameter measured: concentration at 8 h (ng/g)
Give bare numbers, in ng/g.

Memo: NC(CO)C(=O)O (stereo in doubt) [Non-deuterated D-Serine, D-serine] , reported concentration at 8 h: 11900

---

protocol description: Single Ascending Dose (SAD) study plasma PK in healthy volunteers
Type: in vivo, human
recorded conditions: human, plasma, po, 3 g, 3 g single oral dose, fasted; median
parameter measured: Tmax (h)
One number for each entry, in h.

Entry under test: [2H][C@@](N)(CO)C(=O)O [Compound 100] . Its Tmax was 1

---

protocol description: Pharmacokinetics dose response of non-deuterated D-serine in male Sprague-Dawley rats, 30-300 mg/kg PO
Assay type: in vivo
recorded conditions: rat, plasma, po, 300 mg/kg, 300 mg/kg PO, fasted, mean
Text: The pharmacokinetic profile of non-deuterated D-serine was investigated in male Sprague-Dawley rats. […] Plasma was collected and analyzed for the non-deuterated D-serine. Additional blood was collected and analyzed for the full clinical chemistry profile.
parameter measured: Tmax (min)
Answers are plain numbers, in min.

Query NC(CO)C(=O)O (stereo in doubt) [Non-deuterated D-Serine, D-serine] yields Tmax of 30
